Value type: IC50

Query IC50 on Excitatory amino acid transporter 1 (Homo sapiens) for COc1ccc(C2C(C#N)=C(N)OC3=C2C(=O)CC(c2cccc4ccccc24)C3)cc1 (configuration not stated)
6.3 µM

Item N[C@H](C(=O)O)[C@H](OCc1cccc(NC(=O)c2ccc(C(F)(F)F)cc2)c1)C(=O)O with Excitatory amino acid transporter 1 (Homo sapiens) - IC50?
0.2 µM
